# Target: hLTBP3-proTGFβ1 (human, UniProt Q9NS15 44-1303; P01137 30-390, limits assumed)
# Sequence (Q9NS15 44-1303 limits assumed, chain 1 of 2): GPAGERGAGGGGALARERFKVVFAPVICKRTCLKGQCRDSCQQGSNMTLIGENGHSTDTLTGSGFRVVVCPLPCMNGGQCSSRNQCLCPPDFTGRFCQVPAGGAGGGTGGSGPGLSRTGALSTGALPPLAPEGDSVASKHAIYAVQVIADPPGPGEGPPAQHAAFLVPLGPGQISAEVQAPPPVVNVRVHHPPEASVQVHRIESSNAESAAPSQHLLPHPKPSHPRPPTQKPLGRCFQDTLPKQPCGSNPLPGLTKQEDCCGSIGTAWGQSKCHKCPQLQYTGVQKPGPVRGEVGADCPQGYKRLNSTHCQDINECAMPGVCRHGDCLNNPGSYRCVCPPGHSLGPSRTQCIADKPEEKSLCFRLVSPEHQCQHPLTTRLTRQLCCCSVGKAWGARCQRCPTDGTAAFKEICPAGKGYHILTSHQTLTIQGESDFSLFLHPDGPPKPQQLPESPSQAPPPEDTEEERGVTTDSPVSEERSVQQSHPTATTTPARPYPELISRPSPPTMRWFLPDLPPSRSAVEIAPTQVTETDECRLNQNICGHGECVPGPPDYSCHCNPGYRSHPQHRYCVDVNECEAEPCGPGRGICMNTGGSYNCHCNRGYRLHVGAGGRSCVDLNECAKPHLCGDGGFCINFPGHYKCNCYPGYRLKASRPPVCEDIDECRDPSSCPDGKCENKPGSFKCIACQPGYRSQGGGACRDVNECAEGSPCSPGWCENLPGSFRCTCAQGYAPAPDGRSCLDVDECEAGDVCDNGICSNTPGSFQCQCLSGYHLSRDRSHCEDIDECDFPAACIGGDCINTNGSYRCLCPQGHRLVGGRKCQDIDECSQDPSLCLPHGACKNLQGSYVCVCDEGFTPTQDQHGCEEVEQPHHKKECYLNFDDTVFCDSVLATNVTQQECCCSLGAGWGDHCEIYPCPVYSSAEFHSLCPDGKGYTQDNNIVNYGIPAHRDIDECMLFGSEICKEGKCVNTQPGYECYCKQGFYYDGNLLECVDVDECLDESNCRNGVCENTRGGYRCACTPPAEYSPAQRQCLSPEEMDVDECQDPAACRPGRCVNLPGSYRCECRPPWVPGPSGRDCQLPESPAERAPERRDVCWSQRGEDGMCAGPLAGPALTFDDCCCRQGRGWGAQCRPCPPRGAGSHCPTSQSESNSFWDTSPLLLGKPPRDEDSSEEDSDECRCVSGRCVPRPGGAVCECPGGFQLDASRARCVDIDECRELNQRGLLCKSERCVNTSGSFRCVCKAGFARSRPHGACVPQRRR
# Sequence (P01137 30-390 limits assumed, chain 2 of 2): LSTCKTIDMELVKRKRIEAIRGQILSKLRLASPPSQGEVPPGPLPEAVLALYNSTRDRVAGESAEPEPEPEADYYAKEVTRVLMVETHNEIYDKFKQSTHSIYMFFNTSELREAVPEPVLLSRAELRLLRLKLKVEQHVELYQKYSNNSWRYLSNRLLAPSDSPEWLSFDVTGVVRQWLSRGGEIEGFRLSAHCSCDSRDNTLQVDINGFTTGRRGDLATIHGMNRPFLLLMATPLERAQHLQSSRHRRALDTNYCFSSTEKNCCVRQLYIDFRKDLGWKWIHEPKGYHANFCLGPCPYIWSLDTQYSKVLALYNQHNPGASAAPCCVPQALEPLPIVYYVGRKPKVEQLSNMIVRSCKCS
# Protocol Details: cell-based or functional assay
Reported IC50, reporter cell assay values are given for each entry in this list.

Worked cases, answers included:
(Q) Consider the binder shown here: Ab4 (antibody, V domains shown) VH: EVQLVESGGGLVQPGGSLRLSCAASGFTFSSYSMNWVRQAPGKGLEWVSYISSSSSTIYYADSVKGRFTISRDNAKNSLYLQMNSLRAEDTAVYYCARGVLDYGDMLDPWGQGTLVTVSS VL: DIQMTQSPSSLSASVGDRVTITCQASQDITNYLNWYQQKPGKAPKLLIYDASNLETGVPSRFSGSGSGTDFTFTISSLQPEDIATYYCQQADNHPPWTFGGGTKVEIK What is its recorded IC50, reporter cell assay?
(A) 5.6 nM

(Q) Consider the binder shown here: Ab21 (antibody, V domains shown) VH: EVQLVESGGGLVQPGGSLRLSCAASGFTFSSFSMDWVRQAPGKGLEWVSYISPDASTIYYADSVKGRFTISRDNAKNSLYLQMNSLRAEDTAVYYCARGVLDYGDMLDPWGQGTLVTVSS VL: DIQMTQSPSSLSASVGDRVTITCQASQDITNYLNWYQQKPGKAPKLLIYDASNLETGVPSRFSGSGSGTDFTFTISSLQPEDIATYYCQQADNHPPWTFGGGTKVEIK What is its recorded IC50, reporter cell assay?
(A) 0.8 nM

(Q) Consider the binder shown here: Ab25 (antibody, V domains shown) VH: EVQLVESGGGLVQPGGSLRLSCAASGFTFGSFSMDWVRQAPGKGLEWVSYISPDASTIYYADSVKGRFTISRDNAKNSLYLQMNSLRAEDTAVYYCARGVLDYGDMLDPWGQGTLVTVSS VL: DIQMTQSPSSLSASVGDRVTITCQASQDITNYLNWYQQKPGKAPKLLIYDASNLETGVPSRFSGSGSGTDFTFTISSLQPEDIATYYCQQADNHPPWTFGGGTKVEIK What is its recorded IC50, reporter cell assay?
(A) 0.51 nM

More entries:
(Q) Consider the binder shown here: Ab26 (antibody, V domains shown) VH: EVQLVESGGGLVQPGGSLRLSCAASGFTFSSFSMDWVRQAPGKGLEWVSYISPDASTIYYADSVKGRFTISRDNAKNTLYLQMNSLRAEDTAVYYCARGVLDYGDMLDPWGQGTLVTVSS VL: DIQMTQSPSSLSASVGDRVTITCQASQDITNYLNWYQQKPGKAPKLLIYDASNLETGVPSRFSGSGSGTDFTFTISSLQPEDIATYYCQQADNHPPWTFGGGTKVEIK What is its recorded IC50, reporter cell assay?
(A) 0.7 nM

(Q) Consider the binder shown here: Ab33 (antibody, V domains shown) VH: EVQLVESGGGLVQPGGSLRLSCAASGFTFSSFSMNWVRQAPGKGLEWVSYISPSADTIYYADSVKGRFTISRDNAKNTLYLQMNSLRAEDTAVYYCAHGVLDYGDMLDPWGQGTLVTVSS VL: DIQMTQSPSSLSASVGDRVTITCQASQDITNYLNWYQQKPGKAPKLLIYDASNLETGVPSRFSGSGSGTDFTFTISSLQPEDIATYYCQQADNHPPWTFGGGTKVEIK What is its recorded IC50, reporter cell assay?
(A) 1.1 nM
